Reported normalized RNA/DNA level without ligand (log10) values for the following variants.
B1: library; a variant is named by its letters at N, in order (parent)
chain: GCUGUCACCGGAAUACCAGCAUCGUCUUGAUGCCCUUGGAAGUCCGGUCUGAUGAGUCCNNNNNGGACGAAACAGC

- Variants of: B1
- Protocol: normalized RNA/DNA level without ligand (relative to sTRSVctl = 100) (log10 (% of sTRSVctl)); higher = less ribozyme self-cleavage, higher mRNA level
- Condition label: HEK293T, reporter: mCherry (pCS4076), ligand present: no
Parameter measured: normalized RNA/DNA level without ligand (log10)

• GCUGUCACCGGAAUACCAGCAUCGUCUUGAUGCCCUUGGAAGUCCGGUCUGAUGAGUCCAACCAGGACGAAACAGC [AACCA] = 1.82
• GCUGUCACCGGAAUACCAGCAUCGUCUUGAUGCCCUUGGAAGUCCGGUCUGAUGAGUCCAUUAGGGACGAAACAGC [AUUAG] = 1.9
• GCUGUCACCGGAAUACCAGCAUCGUCUUGAUGCCCUUGGAAGUCCGGUCUGAUGAGUCCGCAUGGGACGAAACAGC [GCAUG] = 1.79
• GCUGUCACCGGAAUACCAGCAUCGUCUUGAUGCCCUUGGAAGUCCGGUCUGAUGAGUCCGACGUGGACGAAACAGC [GACGU] = 1.64
• GCUGUCACCGGAAUACCAGCAUCGUCUUGAUGCCCUUGGAAGUCCGGUCUGAUGAGUCCCAAAAGGACGAAACAGC [CAAAA] = 1.31
• GCUGUCACCGGAAUACCAGCAUCGUCUUGAUGCCCUUGGAAGUCCGGUCUGAUGAGUCCCCCGUGGACGAAACAGC [CCCGU] = 1.89
• GCUGUCACCGGAAUACCAGCAUCGUCUUGAUGCCCUUGGAAGUCCGGUCUGAUGAGUCCAUUAUGGACGAAACAGC [AUUAU] = 1.88
• GCUGUCACCGGAAUACCAGCAUCGUCUUGAUGCCCUUGGAAGUCCGGUCUGAUGAGUCCUGCUUGGACGAAACAGC [UGCUU] = 1.95
• GCUGUCACCGGAAUACCAGCAUCGUCUUGAUGCCCUUGGAAGUCCGGUCUGAUGAGUCCAUUUAGGACGAAACAGC [AUUUA] = 1.8
• GCUGUCACCGGAAUACCAGCAUCGUCUUGAUGCCCUUGGAAGUCCGGUCUGAUGAGUCCCUCCCGGACGAAACAGC [CUCCC] = 2
• GCUGUCACCGGAAUACCAGCAUCGUCUUGAUGCCCUUGGAAGUCCGGUCUGAUGAGUCCAACAUGGACGAAACAGC [AACAU] = 1.75
• GCUGUCACCGGAAUACCAGCAUCGUCUUGAUGCCCUUGGAAGUCCGGUCUGAUGAGUCCACCAAGGACGAAACAGC [ACCAA] = 1.74
• GCUGUCACCGGAAUACCAGCAUCGUCUUGAUGCCCUUGGAAGUCCGGUCUGAUGAGUCCCUGCCGGACGAAACAGC [CUGCC] = 1.96
• GCUGUCACCGGAAUACCAGCAUCGUCUUGAUGCCCUUGGAAGUCCGGUCUGAUGAGUCCUUUGAGGACGAAACAGC [UUUGA] = 1.94
• GCUGUCACCGGAAUACCAGCAUCGUCUUGAUGCCCUUGGAAGUCCGGUCUGAUGAGUCCUCCUGGGACGAAACAGC [UCCUG] = 1.99
• GCUGUCACCGGAAUACCAGCAUCGUCUUGAUGCCCUUGGAAGUCCGGUCUGAUGAGUCCGAUUGGGACGAAACAGC [GAUUG] = 1.75
• GCUGUCACCGGAAUACCAGCAUCGUCUUGAUGCCCUUGGAAGUCCGGUCUGAUGAGUCCCCUACGGACGAAACAGC [CCUAC] = 1.99
• GCUGUCACCGGAAUACCAGCAUCGUCUUGAUGCCCUUGGAAGUCCGGUCUGAUGAGUCCCCUGCGGACGAAACAGC [CCUGC] = 2.09
• GCUGUCACCGGAAUACCAGCAUCGUCUUGAUGCCCUUGGAAGUCCGGUCUGAUGAGUCCAGAGGGGACGAAACAGC [AGAGG] = 1.8
• GCUGUCACCGGAAUACCAGCAUCGUCUUGAUGCCCUUGGAAGUCCGGUCUGAUGAGUCCAUCGAGGACGAAACAGC [AUCGA] = 1.76
• GCUGUCACCGGAAUACCAGCAUCGUCUUGAUGCCCUUGGAAGUCCGGUCUGAUGAGUCCAGCACGGACGAAACAGC [AGCAC] = 1.91
• GCUGUCACCGGAAUACCAGCAUCGUCUUGAUGCCCUUGGAAGUCCGGUCUGAUGAGUCCACGUUGGACGAAACAGC [ACGUU] = 1.79
• GCUGUCACCGGAAUACCAGCAUCGUCUUGAUGCCCUUGGAAGUCCGGUCUGAUGAGUCCCGCCUGGACGAAACAGC [CGCCU] = 1.78
• GCUGUCACCGGAAUACCAGCAUCGUCUUGAUGCCCUUGGAAGUCCGGUCUGAUGAGUCCACUCUGGACGAAACAGC [ACUCU] = 1.93
• GCUGUCACCGGAAUACCAGCAUCGUCUUGAUGCCCUUGGAAGUCCGGUCUGAUGAGUCCUUUUCGGACGAAACAGC [UUUUC] = 1.99
• GCUGUCACCGGAAUACCAGCAUCGUCUUGAUGCCCUUGGAAGUCCGGUCUGAUGAGUCCCGAGCGGACGAAACAGC [CGAGC] = 1.94
• GCUGUCACCGGAAUACCAGCAUCGUCUUGAUGCCCUUGGAAGUCCGGUCUGAUGAGUCCCCAGAGGACGAAACAGC [CCAGA] = 1.86
• GCUGUCACCGGAAUACCAGCAUCGUCUUGAUGCCCUUGGAAGUCCGGUCUGAUGAGUCCACGACGGACGAAACAGC [ACGAC] = 1.83
• GCUGUCACCGGAAUACCAGCAUCGUCUUGAUGCCCUUGGAAGUCCGGUCUGAUGAGUCCUAUGCGGACGAAACAGC [UAUGC] = 2
• GCUGUCACCGGAAUACCAGCAUCGUCUUGAUGCCCUUGGAAGUCCGGUCUGAUGAGUCCAUCGUGGACGAAACAGC [AUCGU] = 1.93
• GCUGUCACCGGAAUACCAGCAUCGUCUUGAUGCCCUUGGAAGUCCGGUCUGAUGAGUCCAUGACGGACGAAACAGC [AUGAC] = 1.87
• GCUGUCACCGGAAUACCAGCAUCGUCUUGAUGCCCUUGGAAGUCCGGUCUGAUGAGUCCCAGAUGGACGAAACAGC [CAGAU] = 1.6
• GCUGUCACCGGAAUACCAGCAUCGUCUUGAUGCCCUUGGAAGUCCGGUCUGAUGAGUCCCUUACGGACGAAACAGC [CUUAC] = 1.95
• GCUGUCACCGGAAUACCAGCAUCGUCUUGAUGCCCUUGGAAGUCCGGUCUGAUGAGUCCUACGAGGACGAAACAGC [UACGA] = 1.72
• GCUGUCACCGGAAUACCAGCAUCGUCUUGAUGCCCUUGGAAGUCCGGUCUGAUGAGUCCUGACGGGACGAAACAGC [UGACG] = 1.89
• GCUGUCACCGGAAUACCAGCAUCGUCUUGAUGCCCUUGGAAGUCCGGUCUGAUGAGUCCUUCUCGGACGAAACAGC [UUCUC] = 1.94
• GCUGUCACCGGAAUACCAGCAUCGUCUUGAUGCCCUUGGAAGUCCGGUCUGAUGAGUCCAGGACGGACGAAACAGC [AGGAC] = 1.81
• GCUGUCACCGGAAUACCAGCAUCGUCUUGAUGCCCUUGGAAGUCCGGUCUGAUGAGUCCAGUGGGGACGAAACAGC [AGUGG] = 1.84
• GCUGUCACCGGAAUACCAGCAUCGUCUUGAUGCCCUUGGAAGUCCGGUCUGAUGAGUCCACGUCGGACGAAACAGC [ACGUC] = 1.91
• GCUGUCACCGGAAUACCAGCAUCGUCUUGAUGCCCUUGGAAGUCCGGUCUGAUGAGUCCAUCCGGGACGAAACAGC [AUCCG] = 1.96
• GCUGUCACCGGAAUACCAGCAUCGUCUUGAUGCCCUUGGAAGUCCGGUCUGAUGAGUCCUCGCAGGACGAAACAGC [UCGCA] = 1.57
• GCUGUCACCGGAAUACCAGCAUCGUCUUGAUGCCCUUGGAAGUCCGGUCUGAUGAGUCCACGCGGGACGAAACAGC [ACGCG] = 1.86
• GCUGUCACCGGAAUACCAGCAUCGUCUUGAUGCCCUUGGAAGUCCGGUCUGAUGAGUCCAUAGAGGACGAAACAGC [AUAGA] = 1.57
• GCUGUCACCGGAAUACCAGCAUCGUCUUGAUGCCCUUGGAAGUCCGGUCUGAUGAGUCCAAAAUGGACGAAACAGC [AAAAU] = 1.68
• GCUGUCACCGGAAUACCAGCAUCGUCUUGAUGCCCUUGGAAGUCCGGUCUGAUGAGUCCAAGUCGGACGAAACAGC [AAGUC] = 1.91
• GCUGUCACCGGAAUACCAGCAUCGUCUUGAUGCCCUUGGAAGUCCGGUCUGAUGAGUCCUGGUAGGACGAAACAGC [UGGUA] = 1.28
